target: mTRPC6 mutant ^mK697R (Mus musculus, UniProt Q61143, K697R)
Sequence (Q61143 1-930 K697R): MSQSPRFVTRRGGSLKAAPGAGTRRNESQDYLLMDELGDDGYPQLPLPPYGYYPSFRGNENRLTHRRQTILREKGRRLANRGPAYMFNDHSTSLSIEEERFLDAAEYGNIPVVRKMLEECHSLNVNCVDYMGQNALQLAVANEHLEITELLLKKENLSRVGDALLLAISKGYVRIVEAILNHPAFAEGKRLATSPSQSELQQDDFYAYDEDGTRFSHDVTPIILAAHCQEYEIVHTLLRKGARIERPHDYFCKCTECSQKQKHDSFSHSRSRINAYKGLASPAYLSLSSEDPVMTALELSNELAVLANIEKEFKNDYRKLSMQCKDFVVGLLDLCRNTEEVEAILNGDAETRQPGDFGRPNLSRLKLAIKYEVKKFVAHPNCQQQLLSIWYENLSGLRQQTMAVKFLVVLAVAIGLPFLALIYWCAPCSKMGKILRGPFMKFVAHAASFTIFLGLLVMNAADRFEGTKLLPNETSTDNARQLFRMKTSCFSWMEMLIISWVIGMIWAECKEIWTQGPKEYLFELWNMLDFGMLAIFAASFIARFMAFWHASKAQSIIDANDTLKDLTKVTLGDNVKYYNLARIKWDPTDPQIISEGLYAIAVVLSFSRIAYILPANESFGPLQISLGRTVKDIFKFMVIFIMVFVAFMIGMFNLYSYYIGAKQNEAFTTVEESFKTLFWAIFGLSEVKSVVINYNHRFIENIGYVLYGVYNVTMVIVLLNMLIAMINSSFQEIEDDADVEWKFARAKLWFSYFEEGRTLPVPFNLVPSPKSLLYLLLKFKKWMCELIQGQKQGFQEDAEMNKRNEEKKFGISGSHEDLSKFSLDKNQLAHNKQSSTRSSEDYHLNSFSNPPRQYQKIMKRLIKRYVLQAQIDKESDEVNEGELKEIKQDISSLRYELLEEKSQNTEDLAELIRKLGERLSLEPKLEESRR
assay remarks: whole-cell patch-clamp, mTRPC6 mutant K697R
quantity measured: EC50 (µM)
All answers are understood in µM, so give the number only.

Exercise: Param readout = EC50; param system = mTRPC6 mutant ^mK697R (Mus musculus, UniProt Q61143, K697R); param query = `CCOC(=O)N1CCC(c2cc(O)n3nc(C)c(-c4ccc(F)cc4)c3n2)CC1` ; response: value
Key: 14.1

* * *

target: mTRPC6 mutant ^mE671C (Mus musculus, UniProt Q61143, E671C)
assay remarks: whole-cell patch-clamp, mTRPC6 mutant E671C
quantity measured: EC50 (µM)
All answers are understood in µM, so give the number only.

Exercise: Param readout = EC50; param system = mTRPC6 mutant ^mE671C (Mus musculus, UniProt Q61143, E671C); param query = `CCOC(=O)N1CCC(c2cc(O)n3nc(C)c(-c4ccc(F)cc4)c3n2)CC1` ; response: value
Key: 23.3

* * *

target: mTRPC6 mutant ^mF640W (Mus musculus, UniProt Q61143, F640W)
assay remarks: whole-cell patch-clamp, mTRPC6 mutant F640W
quantity measured: EC50 (nM)
All answers are understood in nM, so give the number only.

Exercise: GET /values?readout=EC50&item= `CCOC(=O)N1CCC(c2cc(O)n3nc(C)c(-c4ccc(F)cc4)c3n2)CC1`
Key: 840

* * *

target: mTRPC6 mutant ^mE672D (Mus musculus, UniProt Q61143, E672D)
assay remarks: whole-cell patch-clamp, mTRPC6 mutant E672D
quantity measured: EC50 (µM)
All answers are understood in µM, so give the number only.

Exercise: GET /values?readout=EC50&item= `CCOC(=O)N1CCC(c2cc(O)n3nc(C)c(-c4ccc(F)cc4)c3n2)CC1`
Key: 25.1

* * *

target: mTRPC6 mutant ^mV709A (Mus musculus, UniProt Q61143, V709A)
assay remarks: whole-cell patch-clamp, mTRPC6 mutant V709A
quantity measured: EC50 (µM)
All answers are understood in µM, so give the number only.

Exercise: Param readout = EC50; param system = mTRPC6 mutant ^mV709A (Mus musculus, UniProt Q61143, V709A); param query = CCOC(=O)N1CCC(c2cc(O)n3nc(C)c(-c4ccc(F)cc4)c3n2)CC1 [M085] ; response: value
Key: 6.95

* * *

target: hTRPC6 mutant ^hE672C (Homo sapiens, UniProt Q9Y210, E672C)
assay remarks: whole-cell patch-clamp, hTRPC6 mutant E672C
quantity measured: EC50
Be sure to follow the number with its unit.

Exercise: GET /values?readout=EC50&item= `CCOC(=O)N1CCC(c2cc(O)n3nc(C)c(-c4ccc(F)cc4)c3n2)CC1`
Key: 50.2 µM

* * *

target: hTRPC6 mutant ^hK676R (Homo sapiens, UniProt Q9Y210, K676R)
Sequence (Q9Y210 1-931 K676R): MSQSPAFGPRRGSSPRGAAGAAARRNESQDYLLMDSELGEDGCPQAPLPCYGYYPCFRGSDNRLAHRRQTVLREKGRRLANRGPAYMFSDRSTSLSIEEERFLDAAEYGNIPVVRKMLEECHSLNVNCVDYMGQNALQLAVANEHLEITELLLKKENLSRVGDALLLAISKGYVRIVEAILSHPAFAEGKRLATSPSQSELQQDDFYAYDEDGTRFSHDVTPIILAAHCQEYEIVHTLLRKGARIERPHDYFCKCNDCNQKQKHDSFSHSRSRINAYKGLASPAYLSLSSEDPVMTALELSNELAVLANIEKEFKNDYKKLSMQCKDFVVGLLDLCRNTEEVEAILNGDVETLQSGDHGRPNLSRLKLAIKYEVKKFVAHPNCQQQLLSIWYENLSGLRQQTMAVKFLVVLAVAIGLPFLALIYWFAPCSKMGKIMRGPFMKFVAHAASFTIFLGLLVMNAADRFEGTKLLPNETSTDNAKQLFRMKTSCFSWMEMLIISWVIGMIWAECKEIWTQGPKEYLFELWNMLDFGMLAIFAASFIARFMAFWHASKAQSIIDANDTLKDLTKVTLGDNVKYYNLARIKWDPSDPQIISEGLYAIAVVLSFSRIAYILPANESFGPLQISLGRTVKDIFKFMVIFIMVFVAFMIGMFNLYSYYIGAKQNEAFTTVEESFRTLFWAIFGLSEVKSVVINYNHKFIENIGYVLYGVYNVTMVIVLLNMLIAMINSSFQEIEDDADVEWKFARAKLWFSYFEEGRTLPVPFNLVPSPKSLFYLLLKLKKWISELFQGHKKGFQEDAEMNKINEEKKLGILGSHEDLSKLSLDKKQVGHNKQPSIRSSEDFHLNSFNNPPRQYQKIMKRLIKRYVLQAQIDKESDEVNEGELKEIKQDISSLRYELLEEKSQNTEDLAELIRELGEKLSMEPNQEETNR
assay remarks: whole-cell patch-clamp, hTRPC6 mutant K676R
quantity measured: EC50 (µM)
All answers are understood in µM, so give the number only.

Exercise: Param readout = EC50; param system = hTRPC6 mutant ^hK676R (Homo sapiens, UniProt Q9Y210, K676R); param query = `CCOC(=O)N1CCC(c2cc(O)n3nc(C)c(-c4ccc(F)cc4)c3n2)CC1` ; response: value
Key: 44

* * *

target: human TRPC6 (hTRPC6-WT) (Homo sapiens, UniProt Q9Y210)
assay remarks: whole-cell patch-clamp, hTRPC6-WT expressed in HEK293 cells
quantity measured: pEC50
Scale note: pEC50 = -log10(concentration in M).

Exercise: GET /values?readout=pEC50&item= `CCOC(=O)N1CCC(c2cc(O)n3nc(C)c(-c4ccc(F)cc4)c3n2)CC1`
Key: 5.53
